Taken from patent US9211296B2.

test system: BS-C-1 cells; experiment: WST-1 cytotoxicity assay; conditions: 120 h, Table 6
observation_type: tox 120 h TC50 (µM)

> print(dat)
                         compound.structure  observation.type  unit.of.measurement  result.modifier  recorded.measurement
1  O=C(Nc1ccccc1C(=O)O)OCC1c2ccccc2-c2ccccc21    tox 120 h TC50                   µM                =                    20
2          COC(=O)c1cccc2c1-c1ccccc1/C2=N\O    tox 120 h TC50                   µM                =                    20
3  Cc1csc2c(N3CCN(C(=O)NC(C)(C)C)CC3)ncnc12    tox 120 h TC50                   µM                =                    40
4  CCNc1nc(SCc2ccc(Cl)cc2)nc2sc3c(c12)CCN(C)C3    tox 120 h TC50                   µM                =                     5
5  Cc1cc(OC(=O)c2ccco2)nc(SCc2c(Cl)cccc2Cl)n1    tox 120 h TC50                   µM                >                   100

###

molecular target: vaccinia virus DNA synthesis (viral DNA polymerase and its associated factors) (Vaccinia virus, UniProt P06856); assay type: biochemical; conditions: read-out: DNA Synthesis Inhibition IC50
pIC50: −log10 of the molar value.
observation_type: pIC50

> print(dat)
                                   compound  observation.type  recorded.measurement
1  CCS(=O)(=O)N1CCN=C1SCc1ccc(Cl)cc1Cl [Compound 10]             pIC50                  3.73
2  CCOC(=O)c1c(NC(=O)/C=C/C(=O)O)sc(C)c1-c1ccccc1 [Compound 2]             pIC50                  3.43
3  N=C1/C(=C/c2coc3ccccc3c2=O)C(=O)N=C2SC=NN12 [Compound 14]             pIC50                  4.12
4  Cc1c(/N=C/c2cc(Br)cc(Br)c2Br)cccc1C(=O)O [Compound 7]             pIC50                  4.59
5  Cc1cc(OC(=O)c2ccco2)nc(SCc2c(Cl)cccc2Cl)n1 [Compound 8]             pIC50                  4.28

###

Parameter pIC50: see the listing below.
molecular target: vaccinia virus DNA synthesis (viral DNA polymerase and its associated factors) (Vaccinia virus); type: biochemical; conditions: read-out: DNA synth IC50
pIC50: −log10 of the molar value.
observation_type: pIC50

> print(dat)
                                   compound  recorded.measurement
1  O=C1/C(=C/C2CCCO2)CC/C1=C\C1CCCO1 (stereo not drawn)                  3.62
2  N=C1/C(=C/c2coc3ccccc3c2=O)C(=O)N=C2SC=NN12                  4.12
3       CCn1c2ccccc2c2ccc(/C=N/n3cnnc3)cc21                  3.88

###

system: BS-C-1 cells; test: WST-1 cytotoxicity assay; conditions: read-out: Cytotoxicity 20 h CC50; 20 h, Table 4
observation_type: CC50

> print(dat)
                         compound.structure  recorded.measurement
1         N=C1S/C(=C/c2ccco2)C(=O)N1c1nccs1              > 100 µM
2  Cc1ccc2c(Sc3ccc(Cl)cc3)c(C(=O)O)[nH]c2c1              > 200 µM
3       CCn1c2ccccc2c2ccc(/C=N/n3cnnc3)cc21              > 200 µM

###

system: BS-C-1 cells; test: WST-1 cytotoxicity assay; details: read-out: Cytotoxicity 72 h CC50; 72 h, Table 4
observation_type: CC50

> print(dat)
                                   compound  system.under.test  recorded.measurement
1  N=C1/C(=C/c2coc3ccccc3c2=O)C(=O)N=C2SC=NN12 [Compound 14]       BS-C-1 cells              > 200 µM
2  CC(=O)n1c2ccccc2c2nc(C)sc21 [Compound 15]       BS-C-1 cells              > 200 µM
3  Nc1ccn(C[C@@H](CO)OCP(=O)(O)O)c(=O)n1 [Cidofovir, reference compound]       BS-C-1 cells              > 500 µM

###

target: vaccinia virus DNA synthesis (viral DNA polymerase and its associated factors) (Vaccinia virus, UniProt P06856); type: biochemical; conditions: read-out: DNA Synthesis IC50
pIC50: −log10 of the molar value.
Parameter pIC50: see the listing below.
observation_type: pIC50

> print(dat)
                                   compound  recorded.measurement
1  CN(C)CC/N=c1\cc(-c2ccccc2)oc2ccc(Cl)cc12 [drawing 93]                  5.17
2          BrCc1ccc(-c2noc(-c3ccncc3)n2)cc1                  5.89
3  CCN(CC)CCCNc1nc2cc(OC)c(OC)cc2c2nc(-c3ccccc3)nn12                  5.23
